Where do the numbers come from? From PubChem BioAssay AID1996.

# condition-summary: buffer; pH 7.4; 200.0 µM
Task for the reader: assign each of the following molecules its reported solubility kinetic.

// Input: CCOC(=O)CCNC(=O)N1CCCC(C(=O)c2ccccc2SC)C1 (configuration not stated) . Output its solubility kinetic only.
> 56.8 µg/mL

// Input: COc1ccc(N2CC(C(=O)Nc3cc(C)ccn3)CC2=O)cc1 (configuration not stated) . Output its solubility kinetic only.
> 48.8 µg/mL

// Input: `COc1ccc(C(=O)Nc2ccccc2NC(=O)c2ccc(OC)cc2)cc1` . Output its solubility kinetic only.
< 0.4 µg/mL

// Input: `Nc1c(C(=O)N2CCOCC2)sc2nc3c(cc12)CCC3` . Output its solubility kinetic only.
> 45.5 µg/mL

// Input: COP(=O)(OC)C(Nc1ccc([N+](=O)[O-])cc1)c1ccccc1 (configuration not stated) . Output its solubility kinetic only.
> 50.4 µg/mL

// Input: CC1C/C(=N\NC(=O)c2cccnc2)CC(C)(C)C1 (configuration not stated) . Output its solubility kinetic only.
> 38.9 µg/mL

// Input: `Cc1c(C)n(Cc2ccccc2)c2ncnc(NCCCN(C)C)c12` . Output its solubility kinetic only.
> 50.6 µg/mL

// Input: `CSc1cccc(NC(=O)CNS(=O)(=O)c2ccccc2)c1` . Output its solubility kinetic only.
> 50.5 µg/mL

// Input: N#CC(c1nc2ccccc2nc1N1CCOCC1)S(=O)(=O)c1ccccc1 (configuration not stated) . Output its solubility kinetic only.
> 59.2 µg/mL

// Input: `Nc1ncnc2c1ncn2[C@@H]1O[C@H](CO)[C@@H](O)[C@H]1O` . Output its solubility kinetic only.
> 40.1 µg/mL

// Input: `CC(C)CNc1nc(N)c([N+](=O)[O-])c(NCc2ccccc2)n1` . Output its solubility kinetic only.
< 0.1 µg/mL

// Input: CC(C(O)c1ccc(O)cc1)N1CCC(Cc2ccccc2)CC1.O=C(O)C(O)C(O)C(=O)O (configuration not stated) . Output its solubility kinetic only.
> 71.3 µg/mL

// Input: `COC(=O)c1ccc(S(=O)(=O)NCc2ccc(OC)cc2)n1C` . Output its solubility kinetic only.
> 50.8 µg/mL

// Input: `COc1ccc2[nH]c(C(=O)N(C)c3ccc(F)cc3F)cc2c1` . Output its solubility kinetic only.
< 0.3 µg/mL

// Input: `Cc1ccc(C(=O)OCC(=O)NCc2ccc(F)cc2)o1` . Output its solubility kinetic only.
> 43.7 µg/mL

// Input: `O=C(CCCc1ccccc1)NCCCc1ccccc1` . Output its solubility kinetic only.
33 µg/mL

// Input: `CCCC(=O)Nc1sc(Cc2ccccc2)c(C)c1C(N)=O` . Output its solubility kinetic only.
6.9 µg/mL

// Input: `Cc1ccc(S(=O)(=O)NCCNc2ccccc2[N+](=O)[O-])cc1` . Output its solubility kinetic only.
1.1 µg/mL

// Input: `O=C(CNC(=O)c1ccc(Cl)cc1)NC1CCCCC1` . Output its solubility kinetic only.
6.6 µg/mL

// Input: `CNC(=O)COC(=O)CCC(=O)c1ccc(Cl)cc1` . Output its solubility kinetic only.
36.2 µg/mL

// Input: `COc1cc2c(cc1OC)/C(=C/C(=O)c1ccc(F)cc1)NCC2` . Output its solubility kinetic only.
25.7 µg/mL

// Input: CC(=O)C1=C(O)C(=O)N(Cc2ccccc2)C1c1ccc(F)cc1 (configuration not stated) . Output its solubility kinetic only.
> 48.8 µg/mL
